Please go through the items and note down their MIC80.
# Tested on: Candida albicans
# procedure_text: Antifungal activity against fluconazole-resistant Candida albicans 24D assessed as inhibition of fungal growth measured for 24 hrs by CLSI based microdilution analysis
# Assay type: functional
Give bare numbers, in µg/mL.

Worked examples, 3 molecules total:
>>> experimental_value("OC(CN1CCN(CCn2ccc3cc(Br)ccc32)CC1)(Cn1cncn1)c1ccc(F)cc1F (stereo not given)")
0.031
>>> experimental_value("Cc1ccc2c(ccn2CCCN2CCN(CC(O)(Cn3cncn3)c3ccc(F)cc3F)CC2)c1 (stereo not given)")
0.125
>>> experimental_value("O=[N+]([O-])c1ccc2c(ccn2CCN2CCN(CC(O)(Cn3cncn3)c3ccc(F)cc3F)CC2)c1 (stereo not given)")
0.031

MIC80 for OC(CN1CCN(CCCn2ccc3ccc(Br)cc32)CC1)(Cn1cncn1)c1ccc(F)cc1F (stereo not given) is 0.125

----------
# System: Candida parapsilosis
# procedure_text: Antifungal activity against Candida parapsilosis ATCC 22019 assessed as reduction in fungal growth incubated for 24 hrs by CLSI based microdilution analysis
# Assay type: functional
# protocol_conditions: Lodderomyces parapsilosis
Please go through the items and note down their MIC80.
Give bare numbers, in µg/mL.

Worked examples, 5 compounds total:
>>> experimental_value("OC(CN1CCN(CCCn2ccc3ccc(Br)cc32)CC1)(Cn1cncn1)c1ccc(F)cc1F (stereo unspecified)")
0.062
>>> experimental_value("O[C@@](CN1CCN(CCn2ccc3cc(Br)ccc32)CC1)(Cn1cncn1)c1ccc(F)cc1F")
0.008
>>> experimental_value("Cc1ccc2c(ccn2CCCN2CCN(CC(O)(Cn3cncn3)c3ccc(F)cc3F)CC2)c1 (stereo unspecified)")
0.125
>>> experimental_value("CCC(C)n1ncn(-c2ccc(N3CCN(c4ccc(OCC5COC(Cn6cncn6)(c6ccc(Cl)cc6Cl)O5)cc4)CC3)cc2)c1=O (stereo unspecified)")
0.25
>>> experimental_value("OC(CN1CCN(CCCCn2ccc3cc(Br)ccc32)CC1)(Cn1cncn1)c1ccc(F)cc1F (stereo unspecified)")
0.062

# map each compound to its MIC80
1. OC(CN1CCN(CCn2ccc3cc(Cl)c(Cl)cc32)CC1)(Cn1cncn1)c1ccc(F)cc1F (stereo unspecified)
2. OC(Cn1cncn1)(Cn1cncn1)c1ccc(F)cc1F
3. OC(CN1CCN(CCCn2ccc3ccccc32)CC1)(Cn1cncn1)c1ccc(F)cc1F (stereo unspecified)
4. O=[N+]([O-])c1ccc2c(ccn2CCCN2CCN(CC(O)(Cn3cncn3)c3ccc(F)cc3F)CC2)c1 (stereo unspecified)
5. O=[N+]([O-])c1ccc2c(ccn2CCN2CCN(CC(O)(Cn3cncn3)c3ccc(F)cc3F)CC2)c1 (stereo unspecified)
6. OC(CN1CCN(CCCn2ccc3cc(Cl)ccc32)CC1)(Cn1cncn1)c1ccc(F)cc1F (stereo unspecified)
7. COc1ccc2c(ccn2CCCN2CCN(CC(O)(Cn3cncn3)c3ccc(F)cc3F)CC2)c1 (stereo unspecified)
8. OC(CN1CCN(CCn2ccc3cc(Br)ccc32)CC1)(Cn1cncn1)c1ccc(F)cc1F (stereo unspecified)

output:
0.125
1.25
0.125
0.062
0.062
0.062
0.062
0.015

# map each compound to its MIC80
1. OC(CN1CCN(CCCn2ccc3ccc(Cl)cc32)CC1)(Cn1cncn1)c1ccc(F)cc1F (stereo unspecified)
2. C[C@@H](c1ncncc1F)[C@](O)(Cn1cncn1)c1ccc(F)cc1F
3. OC(CN1CCN(CCCn2ccc3cc(Br)ccc32)CC1)(Cn1cncn1)c1ccc(F)cc1F (stereo unspecified)

output:
1. 0.125
2. 0.062
3. 0.062
